We begin with a simple list: items and their reported Kd.
Target: T1, human cMET-Fc fusion protein (extracellular domain of human cMET fused to human Fc) (human, UniProt P08581 25-932)
T1 construct: Mature cMET is cleaved into alpha and beta subunits; also called hMET-Fc; hMet-Fc
T1 sequence (P08581 25-932): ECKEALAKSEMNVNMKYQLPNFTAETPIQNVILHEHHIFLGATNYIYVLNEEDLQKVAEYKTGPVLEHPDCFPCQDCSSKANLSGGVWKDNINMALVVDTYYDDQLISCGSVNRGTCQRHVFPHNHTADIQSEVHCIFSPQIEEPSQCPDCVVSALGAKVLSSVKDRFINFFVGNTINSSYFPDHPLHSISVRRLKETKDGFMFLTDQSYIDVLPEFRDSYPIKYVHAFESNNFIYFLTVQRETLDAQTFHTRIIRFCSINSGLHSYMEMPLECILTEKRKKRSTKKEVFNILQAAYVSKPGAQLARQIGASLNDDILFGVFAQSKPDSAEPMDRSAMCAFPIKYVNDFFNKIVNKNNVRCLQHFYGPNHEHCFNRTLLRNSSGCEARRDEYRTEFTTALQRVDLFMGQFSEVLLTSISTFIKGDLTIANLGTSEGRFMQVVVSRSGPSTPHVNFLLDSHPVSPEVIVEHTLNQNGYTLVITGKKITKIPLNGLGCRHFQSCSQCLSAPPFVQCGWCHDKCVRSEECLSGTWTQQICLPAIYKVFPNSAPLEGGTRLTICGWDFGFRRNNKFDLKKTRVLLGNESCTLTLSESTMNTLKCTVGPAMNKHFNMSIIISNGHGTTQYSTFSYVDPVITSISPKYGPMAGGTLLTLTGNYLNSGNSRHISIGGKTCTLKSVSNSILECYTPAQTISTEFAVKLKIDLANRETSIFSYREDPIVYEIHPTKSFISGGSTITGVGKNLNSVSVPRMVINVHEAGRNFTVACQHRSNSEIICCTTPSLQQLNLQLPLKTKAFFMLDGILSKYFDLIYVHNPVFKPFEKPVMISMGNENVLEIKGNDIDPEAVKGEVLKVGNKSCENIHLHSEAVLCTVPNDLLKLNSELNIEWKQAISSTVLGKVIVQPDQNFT
Test: SPR, hMET-Fc
value_kind: Kd

binder: G2akf (humanized P3D12, VH-abb/sdr + VL-fra) (antibody, V domains shown, Humanized and isotype switched version of P3D12) VH: QVQLVQSGAEVKKPGASVKVSCKASGYTFTSYWMHWVKQAPGQGLDWMGYIKPSTDNTEYAQKFQGRVTLTADKSTSTAYMELSSLRSEDTAVYYCARSYGNYPLMDYWGQGTTVTVSS VL: QIVLTQSPAILSLSPGERATLSCSASSSVTSNYLYWYQQKPGSSPKLLIYSTSNLASGVPARFSGSGSGTSYTLTISSLEAEDAASYFCHQWSSYPPTFGSGTKLEIKR
endpoint_result: 0.6 nM
--
binder: Chimeric P3D12 (antibody, V domains shown, Mouse P3D12 variable regions with human constant regions) VH: QVQLQQSGAELAKPGASVKMSCRASGYTFTSYWMHWVKQRPGQGLDWIGYIKPSTDNTEYNQKFKDKATLTADKSSSTAYMQLSSLTSEDSAVYYCARSYGNYPLMDYWGQGTSVTVSS VL: QIVLTQSPAIMSASPGEKVTLTCSASSSVTSNYLYWYQQKPGSSPKLWIYSTSNLASGVPARFSGSGSGTSYSLTISSMEAEDAASYFCHQWSSYPPTFGSGTKLEIKR
endpoint_result: 0.7 nM
--
binder: G2cka (humanized P3D12, VH-cdr + VL-abb/sdr) (antibody, V domains shown, Humanized and isotype switched version of P3D12) VH: QVQLVQSGAEVKKPGASVKVSCKASGYTFTSYWMHWVKQAPGQGLDWIGYIKPSTDNTEYNQKFKDKATLTADKSTSTAYMELSSLRSEDTAVYYCARSYGNYPLMDYWGQGTTVTVSS VL: QIVLTQSPATLSLSPGERATLSCRASQSVTSNYLYWYQQKPGSSPRLLIYSTSNLASGVPARFSGSGSGTDYTLTISRLEPEDFASYFCHQWSSYPPTFGSGTKLEIKR
endpoint_result: 0.4 nM
--
binder: G2fkf (humanized P3D12, VH-fra + VL-fra) (antibody, V domains shown, Humanized and isotype switched version of P3D12) VH: QVQLQQSGAEVKKPGASVKVSCKASGYTFTSYWMHWVKQRPGQGLDWIGYIKPSTDNTEYNQKFKDRVTLTADKSTSTAYMQLSNLISEDTAVYYCARSYGNYPLMDYWGQGTSVTVSS VL: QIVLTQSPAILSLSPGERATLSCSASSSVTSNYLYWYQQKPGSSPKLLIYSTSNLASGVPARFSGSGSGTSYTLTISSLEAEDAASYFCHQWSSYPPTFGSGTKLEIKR
endpoint_result: 0.4 nM
--
binder: G2aka (humanized P3D12, VH-abb/sdr + VL-abb/sdr) (antibody, V domains shown, Humanized and isotype switched version of P3D12) VH: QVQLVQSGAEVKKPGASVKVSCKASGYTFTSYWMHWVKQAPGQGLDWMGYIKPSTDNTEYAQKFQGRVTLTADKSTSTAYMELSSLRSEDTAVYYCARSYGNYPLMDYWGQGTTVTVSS VL: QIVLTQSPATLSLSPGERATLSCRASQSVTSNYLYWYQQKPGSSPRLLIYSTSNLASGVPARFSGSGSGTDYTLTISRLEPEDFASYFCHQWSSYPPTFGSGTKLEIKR
endpoint_result: 0.9 nM
--
binder: F6B1P3D12 (mouse monoclonal anti-cMET antibody) (antibody, V domains shown, Mouse hybridoma antibody (ATCC PTA-125826); also called Mouse P3D12) VH: QVQLQQSGAELAKPGASVKMSCRASGYTFTSYWMHWVKQRPGQGLDWIGYIKPSTDNTEYNQKFKDKATLTADKSSSTAYMQLSSLTSEDSAVYYCARSYGNYPLMDYWGQGTSVTVSS VL: QIVLTQSPAIMSASPGEKVTLTCSASSSVTSNYLYWYQQKPGSSPKLWIYSTSNLASGVPARFSGSGSGTSYSLTISSMEAEDAASYFCHQWSSYPPTFGSGTKLEIKR
endpoint_result: 0.9 nM
